Target: PS2 I288L γ-secretase complex (Homo sapiens, UniProt P49810, I288L)
Sequence (P49810 whole entry I288L): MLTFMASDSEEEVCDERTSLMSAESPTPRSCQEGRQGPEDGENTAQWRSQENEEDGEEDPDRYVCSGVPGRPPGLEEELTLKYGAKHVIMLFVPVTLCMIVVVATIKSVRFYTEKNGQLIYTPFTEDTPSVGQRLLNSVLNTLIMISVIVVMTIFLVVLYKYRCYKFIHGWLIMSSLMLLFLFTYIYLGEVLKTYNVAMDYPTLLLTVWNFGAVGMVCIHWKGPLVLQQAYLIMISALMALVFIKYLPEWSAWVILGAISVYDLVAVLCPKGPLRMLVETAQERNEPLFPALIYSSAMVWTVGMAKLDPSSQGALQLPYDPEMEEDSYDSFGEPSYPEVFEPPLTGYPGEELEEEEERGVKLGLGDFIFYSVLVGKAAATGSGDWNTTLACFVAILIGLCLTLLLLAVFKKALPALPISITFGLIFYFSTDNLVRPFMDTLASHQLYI
Sequence (Q96BI3 whole entry partner): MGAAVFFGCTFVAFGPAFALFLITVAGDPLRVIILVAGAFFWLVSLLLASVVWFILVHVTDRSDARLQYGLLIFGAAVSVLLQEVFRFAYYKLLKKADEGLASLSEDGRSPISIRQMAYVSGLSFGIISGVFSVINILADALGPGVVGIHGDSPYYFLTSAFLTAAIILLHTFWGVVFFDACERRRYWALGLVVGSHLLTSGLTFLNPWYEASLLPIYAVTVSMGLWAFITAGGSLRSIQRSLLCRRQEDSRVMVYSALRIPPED
Sequence (Q9NZ42 whole entry partner): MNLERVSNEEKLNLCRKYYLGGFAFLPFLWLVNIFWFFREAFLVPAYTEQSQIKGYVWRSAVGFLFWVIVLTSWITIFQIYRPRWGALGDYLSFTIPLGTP
Sequence (Q92542 34-709 partner): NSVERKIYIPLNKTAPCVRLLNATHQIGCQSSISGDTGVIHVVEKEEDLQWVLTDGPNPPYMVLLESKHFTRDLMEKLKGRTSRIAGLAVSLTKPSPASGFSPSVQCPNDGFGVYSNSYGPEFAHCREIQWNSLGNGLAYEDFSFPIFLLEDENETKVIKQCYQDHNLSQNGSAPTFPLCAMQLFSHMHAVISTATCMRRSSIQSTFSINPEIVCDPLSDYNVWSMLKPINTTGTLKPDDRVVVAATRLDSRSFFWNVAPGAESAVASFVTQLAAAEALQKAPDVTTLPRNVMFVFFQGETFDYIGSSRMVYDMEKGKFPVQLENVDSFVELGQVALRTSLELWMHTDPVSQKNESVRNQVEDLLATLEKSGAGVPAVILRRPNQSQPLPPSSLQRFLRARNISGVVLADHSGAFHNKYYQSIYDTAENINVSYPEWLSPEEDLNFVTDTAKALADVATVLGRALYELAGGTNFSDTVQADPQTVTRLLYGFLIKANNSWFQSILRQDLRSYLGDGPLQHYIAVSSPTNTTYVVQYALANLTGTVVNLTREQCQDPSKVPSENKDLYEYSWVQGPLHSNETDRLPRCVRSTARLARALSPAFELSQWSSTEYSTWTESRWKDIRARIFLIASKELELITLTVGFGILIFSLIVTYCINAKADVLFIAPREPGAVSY
Experiment: in vitro cleavage assay, Aβ40 production by AlphaLISA
Details: mean ± SD
ASSAY READOUT: pIC50
Give bare numbers, as −log10 of the molar value.

Notebook: O=S(=O)(NC1CCC(c2cc(F)ccc2F)(S(=O)(=O)c2ccc(Cl)cc2)CC1)C(F)(F)F (stereo not shown) , pIC50 read as 7.24
